Hey, just so you know, these numbers are from patent EP2876105A1.

Experiment: Ester metabolism stabilization test: human liver stabilization test
Type: in vitro ADME
Settings: human liver S9 with NADPH, 37°C, 30 minutes
quantity_name: Residual percentage (%) Human liver S9
Reply numerically in %, unit not repeated.

Field: example entries. Status: answers known.
{"compound": "CC(C)OC(=O)OC(C)OC(=O)c1cc2cc(NC(=O)[C@@H]3[C@H](C4CCCCC4)CCN3C(=O)[C@H]3CC[C@H]([C@H](N)CF)CC3)ccc2[nH]1 (stereo partly shown)", "obs_value": 47}
{"compound": "CCC(=O)OC(OC(=O)c1cc2cc(NC(=O)[C@@H]3[C@@H](c4ccccc4)CCN3C(=O)[C@H]3CC[C@H]([C@H](N)CF)CC3)ccc2[nH]1)C(C)C (stereo partly shown)", "obs_value": 5.6}
{"compound": "CC(OC(=O)OC1CCCCC1)OC(=O)c1cc2cc(NC(=O)[C@@H]3[C@@H](c4ccccc4)CCN3C(=O)[C@H]3CC[C@H]([C@H](N)CF)CC3)ccc2[nH]1 (stereo partly shown)", "obs_value": 4.9}
{"compound": "Cc1oc(=O)oc1COC(=O)c1cc2cc(NC(=O)[C@@H]3[C@@H](c4ccccc4)CCN3C(=O)[C@H]3CC[C@H]([C@H](N)CF)CC3)ccc2[nH]1", "obs_value": 18}
{"compound": "N[C@H](CF)[C@H]1CC[C@H](C(=O)N2CC[C@@H](C3CCCCC3)[C@H]2C(=O)Nc2ccc3oc(C(=O)OCC4CCOCC4)cc3c2)CC1", "obs_value": 17}
{"compound": "COCCCOC(=O)c1cc2cc(NC(=O)[C@@H]3[C@H](C4CCCCC4)CCN3C(=O)[C@H]3CC[C@H]([C@H](N)CF)CC3)ccc2o1", "obs_value": 5.8}

We next turn to a different compound, shown below.
Query block: Query: Residual percentage (%) Human liver S9; subject: COC1CCC([C@@H]2CCN(C(=O)[C@H]3CC[C@H]([C@H](N)CF)CC3)[C@@H]2C(=O)Nc2ccc3oc(C(=O)OCC(C)C)cc3c2)CC1 (stereo partly shown)
Result block: 45
